- EXPERIMENTAL SYSTEM: GRIP2_3, Q9C0E4
- Sequence (Q9C0E4 238-339): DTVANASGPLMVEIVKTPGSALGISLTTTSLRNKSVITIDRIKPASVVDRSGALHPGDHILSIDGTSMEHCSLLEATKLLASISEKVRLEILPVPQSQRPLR
- TEST: holdup assay
- Design: key: below the threshold = too weak to quantify, mostly under pKd 3.1 to 4
- RUN CONDITIONS: plain residues with an end cap or a label only (N-terminal biotin on a linker: ahx)
ASSAY ENDPOINT: pKd

BINDER	ASSAY ENDPOINT	ASSAY RESULT
HSATSVHTSV [MTMR1, Q13613]	pKd	below the threshold
ADENEQVSAV [RAPGEF6, Q8TEU7]	pKd	below the threshold
AKPQPVDSWV [ARVCF, O00192]	pKd	below the threshold
VNENQKEYFF [CNTNAP4, Q9C0A0]	pKd	below the threshold
KEYDDELTFF [USH1C, Q9Y6N9]	pKd	below the threshold
PKMKLNETSF [SHKBP1, Q8TBC3]	pKd	below the threshold
